Here, each record is paired with measured melting point data.

Before answering, review these 3 worked examples.
compound | melting point
CCOC(=O)NC(=NCCN(Cc1ccc(Cl)cc1)c1ccccn1)NCCCc1c[nH]cn1 | 94 to 96 °C
CN1C(=O)C(C2=COc3ccccc3O2)=C(c2cn(C(=O)OC(C)(C)C)c3ccc(OCc4ccccc4)cc23)C1=O | 93 °C
COc1cc(CCCn2ccnc2)ccc1OCc1coc(-c2ccc(C)s2)n1 | 92 to 93 °C

Return melting point (reported value) for this compound: `Cc1ccc(-c2ccc3nc(C)c(C(=O)Nc4ccc(CN(C)C5CCOCC5)cc4)cc3c2)cc1`
157 to 160 °C

Identify melting point associated with the compound `CCC1(CC)c2cc(-c3ccc(N(c4ccccc4)c4ccccc4)cc3)ccc2-c2ccc(-c3nc4ccccc4s3)cc21`
206 to 208 °C

Give recorded melting point. `COc1ccc2c(c1)C=C(C(=O)O)CCO2`
176 to 177 °C

Give the reported melting point for this compound. `O=C(C=Cc1ccc(F)cc1)C1CCCCC1`
44 to 46 °C

Report measured melting point; entry is `NCCCN1CCC(c2c[nH]c3cc(F)ccc23)CC1`
102 °C

Supply measured melting point of `CC1=C(CC(=O)O)CN(C)N1` in your reply.
191 to 192 °C

Please give measured melting point of the following entry: `CCOC(=O)c1cc(OCc2ccccc2)c2nc(C)c(C)n2c1`
140 to 141 °C

State its melting point for this compound: `CCOC(=O)COC(=O)c1c(I)c(NC(C)=O)c(I)c(NC(C)=O)c1I`
270 °C

Consider the compound CCOc1cc(N(CC)CC)ccc1C1(N(c2ccc(N(C)C)cc2)c2ccc(N(C)C)cc2)OC(=O)c2ccccc21 (centres undefined) . State its measured melting point.
58 to 69 °C

Provide measured melting point value, entry: `CC(C)c1ccc2nc[nH]c(=O)c2c1`
147 °C

Look up and state reported melting point for `O=C(Nc1c(C(O)(C(F)(F)F)C(F)(F)F)ccc2ccccc12)c1cccc(Br)c1`
184 to 185 °C

For the compound CCC(C)n1nc(C)n(-c2ccc(N3CCCN(C(=O)OC(C)(C)C)CC3)cc2)c1=O (centres undefined) , give its reported melting point.
119 to 120 °C

Give the reported melting point for this compound. `CC(C)c1cc2c(=O)n3cc(C#N)ccc3nc2s1`
225 to 226 °C

Please give the documented melting point of `N#Cc1ccc(OCCCCOc2cccc(-c3cc4cc(C#N)ccc4o3)c2)cc1`
130 to 132 °C

Answer with the recorded melting point of `Cc1oc2c(C)cc(C3CC(=O)OC(=O)C3)cc2c1C` only.
170 °C

Consider the compound `CCC(CC)N(O)C(=O)Nc1ccccc1Oc1ccccc1` . State its measured melting point.
141 to 142 °C
